experiment: Clearance in rat at 2 mg/kg, iv; assay type: ADME, organism-based; settings: in vivo
Parameter: clearance

Sample "CC(C)(O)C(=O)N[C@@H]1CC[C@@]2(S(=O)(=O)c3ccc(F)cc3)c3ccc(C(F)(C(F)(F)F)C(F)(F)F)cc3CC[C@@H]12" ; clearance observed: 4.2 mL/min/kg

====

experiment: Half life in rat liver microsomes; format: ADME, Microsome
Parameter: half-life (min)
Write down the numeric answer in min and omit the unit.

Previously resolved entries follow.
# compound "CC(C)(O)C(=O)N[C@@H]1CC[C@@]2(S(=O)(=O)c3ccc(F)cc3)c3ccc(C(F)(C(F)(F)F)C(F)(F)F)cc3CC[C@@H]12" ; its half-life = 120

// "CC(C)(O)CNC(=O)[C@@H]1CC[C@@]2(S(=O)(=O)c3ccc(F)cc3)c3ccc(C(F)(C(F)(F)F)C(F)(F)F)cc3CC[C@@H]12" : half-life value = 18

Next:
For this compound ( [2H]C([2H])([2H])N1C(=O)C(F)CC1C(=O)N[C@@H]1CC[C@@]2(S(=O)(=O)c3ccc(F)cc3)c3ccc(C(F)(C(F)(F)F)C(F)(F)F)cc3CC[C@@H]12 (single isomer, unassigned) ), measured half-life is 56
